test system: OVCAR-4; assay: NCI tumour cell line growth inhibition, 48 h
Calls of active or inactive are those of the source. Rule as the data show it: active = GI50 up to about 1.1 µM and inactive = higher.
So I've got a bunch of compounds here, and I need their GI50 values.

| COMPOUND | MEASURE | RESULT VALUE |
| --- | --- | --- |
| C1OC1CN1CCN(CC2CO2)CC1 (stereo not drawn) | GI50 | > 100 µM (inactive) |
| Cc1ccc2c(c1)C(=O)N1CCC[C@H]1C=N2 | GI50 | 19.4 µM (inactive) |

According to the records, this compound `Cc1cnoc1NS(=O)(=O)c1ccc(Nc2nnc(/C=C/c3c(O)ccc4ccccc34)c(=O)n2N)cc1` displays GI50 of 27.9 µM (inactive)

====

Kindly state GI50 for each of the entries shown.
tested on: LOX IMVI; test: NCI tumour cell line growth inhibition, 48 h
Calls of active or inactive are those of the source. Rule as the data show it: active = GI50 up to about 1.1 µM and inactive = higher.

Consider the following illustrative entries.
| COMPOUND | GI50 |
| --- | --- |
| NCC(=O)Nc1ccccc1 | > 100 µM (inactive) |
| CC(C)C(=O)N[C@@H](C)C(=O)N(Cc1ccc2ccccc2c1)N=O | 46 µM (inactive) |
| O=C1C(N2CCN(CCOCCO)CC2)=C(Cl)C(=O)c2ncccc21 | 12.7 µM (inactive) |
| COC(=O)c1c(O)ccc2c1c1c(n2Cc2ccc(OC)cc2)C(=O)c2ccccc2C1=O | 5.85 µM (inactive) |
| CCCC(=O)Nc1ccc(O)c2c1C1CCCCCC21 (stereo not given) | > 100 µM (inactive) |
| Cc1cnoc1NS(=O)(=O)c1ccc(Nc2nnc(/C=C/c3c(O)ccc4ccccc34)c(=O)n2N)cc1 | 19.1 µM (inactive) |
| O=c1nc(N2CCCCC2)sc2[nH]c3ccccc3c12 | 74.8 µM (inactive) |
| C=C1C[C@@H]2O[C@H]3[C@H]4[C@@H](C[C@@H](C)[C@@H](OC(C)=O)[C@H]42)[C@@H](C)CO[C@@]3(C)[C@H](OC(C)=O)C[C@H]1O | 17.1 µM (inactive) |

Hey, can you go through the list below and give me GI50 for every item?
1. CC1=C[C@@H]2[C@@H](CC(CO)=C[C@H]3[C@@H]4C(C)(C)[C@]4(OCC(C)C)[C@H](OCC(C)C)[C@@H](C)[C@]23O)C1=O
2. CN(CCN1CCCC1)C1CCc2cc(Cl)c(Cl)cc2C1 (stereo not given)
3. COC(=O)/C(C#N)=C1\CCC(O)N1 (stereo not given)
4. CC[C@@]1(O)C(=O)OCc2c1cc1n(c2=O)Cc2c-1nc1ccccc1c2/C=N\NC(=O)C1CCCN1 (stereo not given in full)
5. ClCCCN1CCN(CCCl)CC1
6. CC(NC(=O)/C(=C/c1ccccc1)NC(=O)c1ccccc1)C(=O)O (stereo not given)
7. COc1cc(C(=O)O[C@H]2CCC3CCC2N3C)cc(OC)c1OC (stereo not given in full)
8. Cc1c(C(=O)C/C(=N\O)C(=O)Nc2cc(Cl)c(Cl)cc2Cl)[n+]([O-])c2ccccc2[n+]1[O-]

A:
1.25 µM (inactive)
15.1 µM (inactive)
> 100 µM (inactive)
0.09 µM (active)
59.8 µM (inactive)
25.2 µM (inactive)
> 100 µM (inactive)
6.65 µM (inactive)

// batch mode: one GI50 value per listed entry
1. COc1ccc(N2C(=O)C3c4[nH]c5ccc(OC)cc5c4C4CCC(C(C)(C)C)CC4C3C2=O)cc1 (stereo not given)
2. CC1(F)C=CC(=O)C=C1

A:
34.2 µM (inactive)
16.3 µM (inactive)

Items follow; give GI50 for each.
1. O=C(O)C1(Cc2ccccc2)Cc2cc3c(cc2C1)CCC3
2. CC(C)(C)C1=CC(=C2C(=O)C(=O)c3ccccc3C2=O)C=C(C(C)(C)C)C1=O

A:
1: > 100 µM (inactive); 2: 37.1 µM (inactive)
